Experiment: Tolerability in Sprague-Dawley rats, plasma chemistry markers (Example 22)
Type: in vivo
Conditions: male Sprague-Dawley rats, 50 mg/kg s.c. weekly for 6 weeks (7 doses), 48 hours after last dose
Simple rule here: TBIL less than 0.2 mg/dL is t, otherwise f.

Field: example entries. Status: answers known.
1198623 (CTAAGTAAGGTTTCCC; modified gapmer, further chemistry not given here) [compound 1198623]
f
1198605 (GTAATATTGCAATCTG; modified gapmer, further chemistry not given here) [compound 1198605]
f
1197270 (TTAAAGTGTATGTCAG; cEt gapmer with 2'-OMe nucleoside, phosphorothioate, further chemistry not given here) [compound 1197270]
t

Now let's try a different one.
Query: TBIL under 0.2 mg/dL? Item: 1198728 (TATTAGAGTATGTGGC; modified gapmer, further chemistry not given here) [compound 1198728]
Response: t

----------
Item-by-item account of YAP1 (% UT)
System: Yap1 mRNA
Assay: Antisense inhibition of human Yap1 in SNU-449 cells by modified oligonucleotides, single dose (Example 5, RTS36584)
Assay type: cell-based
Settings: Table 52; Yap1 mRNA, modified oligonucleotides targeting SEQ ID NO: 1 and 2
Strand notation (5' to 3'): a small letter for the sugar, then the base; units joined by * are phosphorothioate-linked, units joined directly phosphodiester-linked; [ ] holds rarer units or linkages, { } end groups; capitals alone tell only the bases. k = constrained ethyl (cEt); [5mC] = 5-methylcytosine; d = 2'-deoxy (DNA); m = 2'-O-methyl
Provide the reading as a plain figure in % UT.

Below, 2 substances whose answers are already recorded.
1200862 (kT*kT*kT*dA*dA*mA*dG*dT*dG*dT*dA*dT*dG*kT*k[5mC]*kA; antisense) [Compound 1200862]
17
1200825 (kT*kG*k[5mC]*dT*dT*mU*dG*dG*dA*dA*dG*dA*dT*k[5mC]*kT*kG; antisense) [Compound 1200825]
39

For 1200871 (kG*kA*k[5mC]*dT*dA*mA*dG*dT*dA*dA*dG*dG*dT*kT*kT*k[5mC]; antisense) [Compound 1200871] the substance record lists YAP1 (% UT) as 65

Data point: 1200839 (kT*kT*kA*dT*dA*mU*dG*dG*dT*dT*dT*dT*dG*kT*kG*kT; antisense) [Compound 1200839] ; YAP1 (% UT) = 44

----------
Assay: Tolerability in Sprague-Dawley rats, plasma chemistry markers (Example 21)
Format: in vivo
Details: male Sprague-Dawley rats, 50 mg/kg s.c. weekly for 6 weeks (7 doses), 48 hours after last dose
Strand notation (5' to 3'): a small letter for the sugar, then the base; units joined by * are phosphorothioate-linked, units joined directly phosphodiester-linked; [ ] holds rarer units or linkages, { } end groups; capitals alone tell only the bases. e = 2'-O-(2-methoxyethyl) (MOE); k = constrained ethyl (cEt); [5mC] = 5-methylcytosine; d = 2'-deoxy (DNA)
measured.parameter: ALT (U/L)
Please give a number only; it is taken to be in U/L.

1198312 (kG*k[5mC]*kA*d[5mC]*dT*dT*dT*dT*dA*d[5mC]*dA*dT*kT*eA*kG*eG) [compound 1198312]
132

In the following, a different substance is considered.
Value of measured ALT for the entry 1198615 (kT*kT*kA*dA*dA*dG*dT*dG*dT*dA*dT*dG*kT*k[5mC]*kA*eG) [compound 1198615] : 38

----------
Test system: Yap1 mRNA
Test: Antisense inhibition of human Yap1 in SNU-449 cells by modified oligonucleotides, single dose (Example 5, RTS36584)
Assay type: cell-based
Conditions: Table 41; SNU-449 cells, 10,000 cells per well, free uptake, 2,000 nM modified oligonucleotide, approximately 48 hours; RTS36584; normalized to RIBOGREEN; Yap1 mRNA relative to untreated control cells
Strand notation (5' to 3'): a small letter for the sugar, then the base; units joined by * are phosphorothioate-linked, units joined directly phosphodiester-linked; [ ] holds rarer units or linkages, { } end groups; capitals alone tell only the bases. e = 2'-O-(2-methoxyethyl) (MOE); k = constrained ethyl (cEt); [5mC] = 5-methylcytosine; d = 2'-deoxy (DNA)
measured.parameter: YAP1 (% UTC)
Reply numerically in % UTC, unit not repeated.

Worked examples, 5 substances total:
1198665 (antisense kT*kG*d[5mC]*dT*dT*dT*dG*dG*dA*dA*dG*dA*kT*e[5mC]*kT*eG) [Compound 1198665]
38
1198792 (antisense kT*eT*kT*dA*dA*dA*dG*dT*dG*dT*dA*dT*eG*eT*k[5mC]*kA) [Compound 1198792]
48
1198628 (TGTCTCATGCCTTATA; modified gapmer, chemistry not fully specified) [Compound 1198628]
27
1198654 (kA*k[5mC]*dT*dT*dT*dT*dA*d[5mC]*dA*dT*dT*dA*kG*eG*kA*eA; antisense) [Compound 1198654]
91
1198652 (kT*kT*dT*dT*dA*d[5mC]*dA*dT*dT*dA*dG*dG*kA*eA*k[5mC]*eA; antisense) [Compound 1198652]
68

The record that follows has no YAP1 (% UTC) shown yet.
Briefly, YAP1 (% UTC) measured for 1198631 (kA*kA*dA*dT*dT*dG*dT*d[5mC]*dT*d[5mC]*dA*dT*kG*e[5mC]*k[5mC]*eT; antisense) [Compound 1198631] : 53

----------
Test system: Yap1 mRNA
Assay: Antisense inhibition of human Yap1 in A-431 cells by cEt gapmers, single dose (Example 2, RTS4814)
Assay type: cell-based
Conditions: Yap1 mRNA as percent of untreated control; A-431 cells; 3-10-3 cEt gapmers targeting SEQ ID NO.: 1, and 2; Table 30
Strand notation (5' to 3'): a small letter for the sugar, then the base; units joined by * are phosphorothioate-linked, units joined directly phosphodiester-linked; [ ] holds rarer units or linkages, { } end groups; capitals alone tell only the bases. k = constrained ethyl (cEt); [5mC] = 5-methylcytosine; d = 2'-deoxy (DNA)
Consider the following substances and their measured YAP1 (% UTC) readings.
Could you give me the number in % UTC? Just the number is fine.

1074480 (kT*k[5mC]*kA*dT*dT*dT*dG*d[5mC]*d[5mC]*dT*dA*dG*dG*kT*kT*k[5mC]; antisense) [compound 1074480]
3
1076304 (kA*k[5mC]*kT*dA*dA*dT*dA*dA*dG*d[5mC]*d[5mC]*dT*d[5mC]*kA*k[5mC]*k[5mC]; antisense) [compound 1076304]
30
1075344 (antisense kT*kA*kA*d[5mC]*dT*dA*dA*dA*dA*dG*dG*dG*dA*kG*kT*kA) [compound 1075344]
91
1075728 (k[5mC]*kT*kT*dT*dA*dT*d[5mC]*dG*dG*dA*dG*dG*d[5mC]*kT*kT*k[5mC]; antisense) [compound 1075728]
15
1076368 (antisense k[5mC]*kA*kT*dT*dT*dT*dA*dT*dG*dT*dA*dA*dG*kG*k[5mC]*k[5mC]) [compound 1076368]
15

Switching to the query record.
YAP1 (% UTC) recorded for this substance, 1076144 (kT*kT*kT*dT*dA*dT*dA*dG*dG*dG*d[5mC]*dA*dA*kT*kG*kG; antisense) [compound 1076144] , is 7

----------
Tested on: Yap1 mRNA
Assay: Dose-dependent inhibition of human Yap1 in SNU-449 cells (Example 9, RTS36584)
Assay type: cell-based
Details: free uptake, linear regression on a log/linear plot
Strand notation (5' to 3'): a small letter for the sugar, then the base; units joined by * are phosphorothioate-linked, units joined directly phosphodiester-linked; [ ] holds rarer units or linkages, { } end groups; capitals alone tell only the bases. e = 2'-O-(2-methoxyethyl) (MOE); k = constrained ethyl (cEt); [5mC] = 5-methylcytosine; d = 2'-deoxy (DNA)
Collected IC50 values appear next to each entry.
Numeric answer only, unit nM assumed.

Completed entries (count: 4):
1198788 (kA*eA*kG*dT*dG*dT*dA*dT*dG*dT*d[5mC]*dA*eG*eA*kA*kG) [compound 1198788]
100
1198470 (kT*kA*dT*dT*dA*dG*dA*dG*dT*dA*dT*eG*kT*eG*kG*e[5mC]; antisense) [compound 1198470]
100
1198857 (kT*k[5mC]*dT*dT*dA*dT*dA*dT*dG*dG*dT*kT*eT*kT*eG*kT) [compound 1198857]
100
1198406 (kG*d[5mC]*dT*dT*dT*dG*dG*dA*dA*dG*dA*kT*e[5mC]*kT*eG*kA; antisense) [compound 1198406]
200

// switching to the query substance
Memo: 1074728 (antisense kT*kG*kA*dG*dG*dT*dA*dT*dA*dA*d[5mC]*dT*dG*kG*kG*k[5mC]) [compound 1074728] , reported IC50: 100

----------
Each entry below lists one item and its recorded YAP1 (% UTC) value.
System: Yap1 mRNA
Test: Antisense inhibition of human Yap1 in A-431 cells by cEt gapmers, single dose (Example 2, RTS4814)
Assay type: cell-based
Settings: Table 22; Yap1 mRNA as percent of untreated control; 3-10-3 cEt gapmers; single dose
Strand notation (5' to 3'): a small letter for the sugar, then the base; units joined by * are phosphorothioate-linked, units joined directly phosphodiester-linked; [ ] holds rarer units or linkages, { } end groups; capitals alone tell only the bases. k = constrained ethyl (cEt); [5mC] = 5-methylcytosine; d = 2'-deoxy (DNA)
Please give a number only; it is taken to be in % UTC.

1074280 (antisense kG*kG*kT*d[5mC]*dA*dA*dG*d[5mC]*d[5mC]*dT*dT*dG*dG*kG*kT*k[5mC]) [Compound 1074280]
43

// 1075400 (antisense kT*kA*kG*d[5mC]*dA*dA*dT*dA*dG*dT*d[5mC]*dA*dG*kG*kT*kA) [Compound 1075400] : YAP1 (% UTC) value = 11

// YAP1 (% UTC) lookup, substance = 1076200 (kG*kA*kT*dT*dA*d[5mC]*dA*d[5mC]*dT*dA*dT*d[5mC]*dA*kA*kA*kA; antisense) [Compound 1076200] , result: 67

For record 1074760 (kA*k[5mC]*kA*dA*d[5mC]*d[5mC]*dA*dA*dG*dA*dA*dG*d[5mC]*kA*kG*kT; antisense) [Compound 1074760] the listed YAP1 (% UTC) is 11

// 1076360 (k[5mC]*kT*kA*dT*dT*dT*dA*dT*d[5mC]*d[5mC]*dT*dA*dG*kT*kT*kA; antisense) [Compound 1076360] : YAP1 (% UTC) value = 59
